- ASSAYED TARGET: PDEV (Oryctolagus cuniculus, UniProt G1SX67)
- ASSAY EXPLANATION: Cyclic nucleotide phosphodiesterase (PDE) assay, inhibition of PDEV isolated from rabbit tissue
- Format: biochemical
- ASSAY CONDITIONS: 10 μM test compound; rabbit PDEV
PARAMETER: % INH @ 10 μM (rabbit) (%)
Please state the figure in %; there is no need to write the unit.

Identify the reported % INH @ 10 μM (rabbit) for the following entry. Cc1ccc(-c2cnc(N3CCc4c(n(-c5ncc(-c6ccc(C)cc6)cn5)c5ccccc45)C3c3ccc4c(c3)OCO4)nc2)cc1 (stereo not shown)
58

Supply measured % INH @ 10 μM (rabbit) of c1ccc2c3c([nH]c2c1)C(c1ccc2c(c1)CCO2)N(c1ncc(-c2ccc(OCCN4CCOCC4)cc2)cn1)CC3 (stereo not shown) in your reply.
40

Complete the entry with % INH @ 10 μM (rabbit) for c1ccc2c3c([nH]c2c1)C(c1ccc2c(c1)CCO2)N(c1ncc(-c2ccc(OCCN4CCCC4)cc2)cn1)CC3 (stereo not shown)
37

Identify measured % INH @ 10 μM (rabbit) associated with c1ccc2oc(N3CCc4c(n(-c5nc6ccccc6o5)c5ccccc45)C3c3ccc4c(c3)OCO4)nc2c1 (stereo not shown)
4

====

% Inh @ 10 μM (rabbit): recorded values
- ASSAYED TARGET: PDEV (Oryctolagus cuniculus)
- ASSAY EXPLANATION: Cyclic nucleotide phosphodiesterase (PDE) assay, inhibition of PDEV isolated from rabbit tissue
- Assay type: biochemical
- ASSAY CONDITIONS: 10 μM test compound; rabbit PDEV
Answer in %, number only, no unit symbol.

Worked examples follow.
{"COMPOUND": "O=C(c1ccc(Cl)nc1)N1CCc2c([nH]c3ccccc23)C1c1ccc2c(c1)OCO2 (racemic)", "ASSAYED TARGET": "PDEV (Oryctolagus cuniculus)", "% Inh @ 10 μM (rabbit) / %": 48}
{"COMPOUND": "CC(C)(C)c1cc(C(=O)N2CCc3c([nH]c4ccccc34)C2c2ccc3c(c2)OCO3)n(Cc2ccccc2)n1 (stereo not shown)", "ASSAYED TARGET": "PDEV (Oryctolagus cuniculus)", "% Inh @ 10 μM (rabbit) / %": 18}
{"COMPOUND": "O=C(c1ccc(-c2cccc([N+](=O)[O-])c2)o1)N1CCc2c(sc3ccccc23)C1c1ccc2c(c1)OCO2 (stereo not shown)", "ASSAYED TARGET": "PDEV (Oryctolagus cuniculus)", "% Inh @ 10 μM (rabbit) / %": 27}

Please list % Inh @ 10 μM (rabbit) recorded for the compound O=C(c1ccc(-c2ccc(NCCCCO)cc2)o1)N1CCc2c([nH]c3ccccc23)C1c1ccc2c(c1)OCO2 (stereo not shown)
89

Note % Inh @ 10 μM (rabbit) for the compound shown: O=C(c1ccc(-c2cccc(C(F)(F)F)c2)o1)N1CCc2c([nH]c3ccccc23)C1c1cccnc1 (stereo not shown)
35

Report % Inh @ 10 μM (rabbit) for Cc1oc(-c2ccccc2)cc1C(=O)N1CCc2c([nH]c3ccccc23)C1c1ccc2c(c1)OCO2 (racemic)
72

Respond only with % Inh @ 10 μM (rabbit) recorded for CN(C)CCn1c2c(c3ccccc31)CCN(C(=O)c1ccc(-c3cccc([N+](=O)[O-])c3)o1)C2c1ccc2c(c1)OCO2 (stereo not shown)
91

====

- ASSAYED TARGET: PDEV (Oryctolagus cuniculus, UniProt G1SX67)
- ASSAY EXPLANATION: Cyclic nucleotide phosphodiesterase (PDE) assay, inhibition of PDEV isolated from rabbit tissue
- Type: biochemical
- ASSAY CONDITIONS: 10 μM test compound; rabbit PDEV; read-out: % INH @ 10 μM (rabbit)
Please note: met applies when inhibition at 10 µM is 80% or greater, and not met applies otherwise.

Please tell me: is the molecule CS(=O)(=O)c1ccc(-c2cnc(N3CCc4c(n(CCN5CCCC5)c5ccccc45)C3c3ccc4c(c3)OCO4)nc2)c([N+](=O)[O-])c1 (centres unmarked) [Cmpd 154] at or over 80% in terms of inhibition at 10 µM?
met

Is the recorded value of inhibition at 10 µM equal to or greater than 80% for this molecule? c1ccc2oc(N3CCc4c([nH]c5ccccc45)C3c3ccc4c(c3)OCO4)nc2c1 (centres unmarked) [Cmpd 151]
met

====

- ASSAYED TARGET: PDEV (Oryctolagus cuniculus, UniProt G1SX67)
- ASSAY EXPLANATION: Cyclic nucleotide phosphodiesterase (PDE) assay, inhibition of PDEV isolated from rabbit tissue
- Assay type: biochemical
- ASSAY CONDITIONS: 10 μM test compound; rabbit PDEV
- Method: Briefly, rabbit or human tissues were homogenized in an ice-cold buffer solution containing 20 mM HEPES (pH 7.2), 0.25M sucrose, 1 mM EDTA, and 1 mM phenylmethylsulphonyl fluoride (PMSF). The homogenates were centrifuged at 100,000 g for 60 minutes at 4° C. […] The assays were adapted to a 96-well format. […] An aliquot of 200 μl was taken and counted by liquid scintillation. PDE activity was expressed as pmol cyclic nucleotide hydrolyzed/min/ml of enzyme preparation. […]
Catalogue of % Inh @ 10 μM (rabbit) values
Note: unit % is implicit; provide only the numeric part.

{"MOLECULE": "O=C(c1ccc(-c2cccc([N+](=O)[O-])c2)o1)N1CCc2c([nH]c3ccccc23)C1c1ccncc1 (centres unmarked)", "% Inh @ 10 μM (rabbit), %": 69}
{"MOLECULE": "O=S(=O)(c1ccccc1)c1ccsc1S(=O)(=O)N1CCc2c([nH]c3ccccc23)C1c1ccc2c(c1)OCO2 (centres unmarked)", "% Inh @ 10 μM (rabbit), %": 35}
{"MOLECULE": "O=C(c1cnn(-c2ccccc2)c1C(F)(F)F)N1CCc2c([nH]c3ccccc23)C1c1ccc([N+](=O)[O-])cc1 (centres unmarked)", "% Inh @ 10 μM (rabbit), %": 12}
{"MOLECULE": "COC(=O)CCn1c2c(c3ccccc31)CCN(C(=O)c1ccc(-c3cccc(C(F)(F)F)c3)o1)C2c1ccc2c(c1)OCO2 (centres unmarked)", "% Inh @ 10 μM (rabbit), %": 30}
{"MOLECULE": "COc1ccc(-c2cnc(N3CCc4c(n(CCN(C)C)c5ccccc45)C3c3ccc4c(c3)OCO4)nc2)cc1 (centres unmarked)", "% Inh @ 10 μM (rabbit), %": 95}

Please report the measured % Inh @ 10 μM (rabbit) for CN(C)CCn1c2c(c3ccccc31)CCN(C(=O)c1ccc(-c3ccc(Cl)cc3[N+](=O)[O-])o1)C2c1ccc2c(c1)OCO2 (centres unmarked)
78

Report % Inh @ 10 μM (rabbit) for CN(C)CCn1c2c(c3ccccc31)CCN(C(=O)c1cc3cc([N+](=O)[O-])ccc3o1)C2c1ccc2c(c1)OCO2 (centres unmarked)
94

Given the molecule COc1ccc(C2c3[nH]c4ccccc4c3CCN2C(=O)c2cc(C(C)(C)C)nn2Cc2ccccc2)cc1 (centres unmarked) , write its reported % Inh @ 10 μM (rabbit).
11

Specify measured % Inh @ 10 μM (rabbit) for O=C(c1ccc(Br)o1)N1CCc2c([nH]c3ccccc23)C1c1ccc2c(c1)OCO2 (centres unmarked) .
78

Tell me % Inh @ 10 μM (rabbit) reported for CN(C)CCn1c2c(c3ccccc31)CCN(C(=O)c1ccc(-c3ccc([N+](=O)[O-])cc3)o1)C2c1ccc2c(c1)OCO2 (centres unmarked)
95

Report % Inh @ 10 μM (rabbit) for O=C(c1cc2ccccc2o1)N1CCc2c([nH]c3ccccc23)C1c1ccc2c(c1)OCO2 (centres unmarked)
88

Note % Inh @ 10 μM (rabbit) for the molecule shown: O=C(c1ccc([N+](=O)[O-])o1)N1CCc2c([nH]c3ccccc23)C1c1ccc2c(c1)OCO2 (centres unmarked)
83

Supply reported % Inh @ 10 μM (rabbit) belonging to this molecule: CN(C)CCOC(=O)C1Cc2c([nH]c3ccccc23)C(c2ccc3c(c2)OCO3)N1C(=O)c1ccc(-c2cccc([N+](=O)[O-])c2)o1 (centres unmarked)
35

Report measured % Inh @ 10 μM (rabbit); entry is CN(C)CCCn1c2c(c3ccccc31)CCN(C(=O)c1ccc(-c3cccc(C(F)(F)F)c3)o1)C2c1ccc2c(c1)OCO2 (centres unmarked)
65

====

Measured % Inh @ 10 μM (rabbit) of individual entries
- ASSAYED TARGET: PDEV (Oryctolagus cuniculus, UniProt G1SX67)
- ASSAY EXPLANATION: Cyclic nucleotide phosphodiesterase (PDE) assay, inhibition of PDEV isolated from rabbit tissue
- Format: biochemical
- ASSAY CONDITIONS: 10 μM test compound; rabbit PDEV
- Description: Briefly, rabbit or human tissues were homogenized in an ice-cold buffer solution containing 20 mM HEPES (pH 7.2), 0.25M sucrose, 1 mM EDTA, and 1 mM phenylmethylsulphonyl fluoride (PMSF). The homogenates were centrifuged at 100,000 g for 60 minutes at 4° C. […] The assays were adapted to a 96-well format. […] An aliquot of 200 μl was taken and counted by liquid scintillation. PDE activity was expressed as pmol cyclic nucleotide hydrolyzed/min/ml of enzyme preparation. […]
Provide the reading as a plain figure in %.

Here is how some molecules turned out for % Inh @ 10 μM (rabbit).
{"MOLECULE": "O=C(c1ccc(-c2cccc(C(F)(F)F)c2)o1)N1CCc2c([nH]c3ccccc23)C1c1ccncc1 (stereo not shown)", "% Inh @ 10 μM (rabbit) (%)": 34}
{"MOLECULE": "O=C(O)Cn1c2c(c3ccccc31)CCN(C(=O)c1ccc(-c3cccc(C(F)(F)F)c3)o1)C2c1ccc2c(c1)OCO2 (stereo not shown)", "% Inh @ 10 μM (rabbit) (%)": 75}
{"MOLECULE": "O=C(O)Cn1c2c(c3ccccc31)CCN(C(=O)c1ccc(-c3cccc([N+](=O)[O-])c3)o1)C2c1ccc2c(c1)OCO2 (stereo not shown)", "% Inh @ 10 μM (rabbit) (%)": 93}

Continue with the next molecule.
Fill in reported % Inh @ 10 μM (rabbit) for this entry: O=C(c1cnn(-c2ccc(Cl)cc2)c1C(F)(F)F)N1CCc2c([nH]c3ccccc23)C1c1ccc2c(c1)OCO2 (stereo not shown)
53
